target: LIMK2 (LIMK2_347–659, kinase catalytic domain) (Homo sapiens, UniProt P53671); format: biochemical; details: 15 nM LIMK2 catalytic domain, 4 μM CFL1, 2 mM ATP; mean ± SEM; pIC50 greater than 8.1 treat with caution
Sequence (P53671 326-638 limits assumed): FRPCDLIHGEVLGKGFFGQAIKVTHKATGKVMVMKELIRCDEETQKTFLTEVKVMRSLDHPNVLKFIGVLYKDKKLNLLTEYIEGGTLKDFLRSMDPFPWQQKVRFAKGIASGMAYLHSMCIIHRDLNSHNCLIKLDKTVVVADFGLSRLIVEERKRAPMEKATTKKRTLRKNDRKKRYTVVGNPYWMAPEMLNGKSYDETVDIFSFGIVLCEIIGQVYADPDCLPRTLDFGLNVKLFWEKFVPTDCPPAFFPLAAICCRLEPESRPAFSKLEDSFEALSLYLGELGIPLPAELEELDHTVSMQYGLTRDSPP
parameter: RapidFire pIC50 LIMK2
Lab note: jot down the number only; don't add units.

Some entries whose results are on file:
CCNC(=O)Nc1ncc(-c2cc(-c3c(C)cc(OC)cc3C)nc(-c3cnccn3)n2)s1 :: 6.87
O=C(Nc1ncc(-c2cc(C(F)F)nn2-c2c(Cl)cccc2Cl)s1)C1CC1 :: 7.52

// next entry
q: So what's the measured RapidFire pIC50 LIMK2 for this one? `CCc1cccc(CC)c1NC(=O)N1Cc2n[nH]c(NC(=O)c3ccc(N4CCN(C)CC4)cc3)c2C1`
a: 5.10

====

assay: In vivo DMPK, IV dosing; conditions: male, Sprague-Dawley, rat
parameter: clearance (mL/min/kg)
Field format: number, assumed mL/min/kg, no unit text.

Cc1c[nH]c2ncnc(-c3ccc(NC(=O)N(CCO)c4ccccc4)cc3)c12 :: 4.2

Let's switch to this compound now.
q: Can you share its clearance? I mean this compound: `Cc1c[nH]c2ncnc(N3CCC(CN)(C(=O)Nc4cccc(OC(=O)N(C)C)c4)CC3)c12`
a: 98.1

====

assay: Caco-2 permeability; format: in vitro ADME; conditions: human, Caco-2; A – B
parameter: Papp A→B

q: // lookup Papp A→B for CC(C)C(=O)Nc1ncc(-c2cc(C(F)F)nn2-c2c(Cl)cccc2Cl)s1 [Compound 4]
a: 8.8 ×10⁻⁶ cm/s

====

test: Caco-2 permeability; format: in vitro ADME; details: human; Caco-2, Table S1; read-out: Efflux ratio
parameter: efflux ratio
// no unit string in output, number only

Below: 2 compounds and their reported efflux ratio.
CCc1cccc(CC)c1NC(=O)N1Cc2n[nH]c(NC(=O)c3ccc(N4CCN(C)CC4)cc3)c2C1 [Compound 11] :: 279
Cc1cc(Nc2cc(CN3CCOCC3)c3nc(C)c(Cc4ccc(Cl)cc4F)n3n2)n[nH]1 [Compound 13, gandotinib] :: 10.2

Next, consider the following compound.
q: Would you mind telling me what efflux ratio value was observed for Cc1cc(Nc2nc(N[C@@H](C)c3ccc(F)cc3)c(C#N)cc2F)n[nH]1 [Compound 12] ?
a: 1.01

====

molecular target: PAK pLIMK1 (PAK-phosphorylated LIMK1) (Homo sapiens, UniProt P53667); assay: RapidFire mass spectrometry kinase assay, PAK-phosphorylated LIMK1; conditions: 5 nM LIMK1 + 0.4 nM PAK1 kinase domain; mean ± SEM
Documented RapidFire pIC50 PAK pLIMK1 across a set of compounds

CCNC(=O)Nc1ncc(-c2cc(-c3c(C)cc(OC)cc3C)nc(-c3cnccn3)n2)s1 [Compound 3] :: 5.64 ± 0.06

q: Entry CCc1cccc(CC)c1NC(=O)N1Cc2n[nH]c(NC(=O)c3ccc(N4CCN(C)CC4)cc3)c2C1 [Compound 11] has what RapidFire pIC50 PAK pLIMK1?
a: 6.24 ± 0.04

q: Name the reported RapidFire pIC50 PAK pLIMK1 value associated with the compound O=C(Nc1ncc(-c2cc(C(F)F)nn2-c2c(Cl)cccc2Cl)s1)C1CC1 [Compound 2]
a: 7.00 ± 0.03

====

target: LIMK2 (NanoLuc LIMK2 kinase fusion) (Homo sapiens, UniProt P53671); construct: host or cells: HEK293; type: cell-based; details: HEK293 cells, 2 h; mean ± SEM
Sequence (P53671 whole entry, the tested form may be a part): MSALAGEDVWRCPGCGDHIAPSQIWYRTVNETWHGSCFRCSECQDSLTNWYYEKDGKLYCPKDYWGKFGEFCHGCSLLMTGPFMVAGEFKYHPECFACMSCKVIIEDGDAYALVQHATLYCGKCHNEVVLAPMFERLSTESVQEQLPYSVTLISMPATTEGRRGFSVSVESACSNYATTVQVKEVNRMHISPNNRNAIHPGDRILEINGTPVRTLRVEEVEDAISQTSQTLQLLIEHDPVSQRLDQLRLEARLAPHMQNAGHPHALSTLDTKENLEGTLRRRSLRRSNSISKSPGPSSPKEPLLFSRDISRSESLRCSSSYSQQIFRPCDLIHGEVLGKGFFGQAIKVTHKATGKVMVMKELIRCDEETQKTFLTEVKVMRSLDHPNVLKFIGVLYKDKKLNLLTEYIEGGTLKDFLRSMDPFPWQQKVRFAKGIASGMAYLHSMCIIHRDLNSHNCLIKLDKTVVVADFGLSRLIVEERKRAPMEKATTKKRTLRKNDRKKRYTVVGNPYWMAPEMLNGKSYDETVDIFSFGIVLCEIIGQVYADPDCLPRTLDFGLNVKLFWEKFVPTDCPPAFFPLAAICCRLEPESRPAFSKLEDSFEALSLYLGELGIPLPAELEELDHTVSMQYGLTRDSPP
parameter: NanoBRET pIC50 LIMK2
Answer with a bare number; do not write a unit.

O=C(Nc1ncc(-c2cc(C(F)F)nn2-c2c(Cl)cccc2Cl)s1)C1CC1 :: 7.79

# input for lookup
q: I'd like to know its NanoBRET pIC50 LIMK2. The compound in question is `CCNC(=O)Nc1ncc(-c2cc(-c3c(C)cc(OC)cc3C)nc(-c3cnccn3)n2)s1`
a: 6.33

====

target: LIMK1 (NanoLuc LIMK1 kinase fusion) (Homo sapiens, UniProt P53667); construct: host or cells: HEK293; type: cell-based; details: HEK293 cells, 2 h; mean ± SEM
Sequence (P53667 whole entry, the tested form may be a part): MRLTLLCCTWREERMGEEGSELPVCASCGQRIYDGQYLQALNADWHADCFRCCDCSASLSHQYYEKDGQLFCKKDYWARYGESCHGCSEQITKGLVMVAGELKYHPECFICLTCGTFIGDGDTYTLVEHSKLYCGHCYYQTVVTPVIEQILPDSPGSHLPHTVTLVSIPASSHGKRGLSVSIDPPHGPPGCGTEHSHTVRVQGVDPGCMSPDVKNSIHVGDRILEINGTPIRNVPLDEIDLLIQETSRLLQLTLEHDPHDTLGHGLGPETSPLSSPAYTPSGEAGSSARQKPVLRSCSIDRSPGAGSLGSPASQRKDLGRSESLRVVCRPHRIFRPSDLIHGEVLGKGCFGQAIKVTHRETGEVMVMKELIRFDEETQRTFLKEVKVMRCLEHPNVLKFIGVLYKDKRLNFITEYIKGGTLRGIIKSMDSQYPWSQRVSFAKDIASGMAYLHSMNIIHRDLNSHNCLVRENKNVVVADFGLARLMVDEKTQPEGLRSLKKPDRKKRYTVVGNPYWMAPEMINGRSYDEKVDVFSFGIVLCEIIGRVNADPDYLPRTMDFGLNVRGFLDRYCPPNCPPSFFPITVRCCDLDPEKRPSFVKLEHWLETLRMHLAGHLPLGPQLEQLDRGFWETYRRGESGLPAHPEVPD
Readings of NanoBRET pIC50 LIMK1 for the listed compounds

Cc1cc(Nc2nc(N[C@@H](C)c3ccc(F)cc3)c(C#N)cc2F)n[nH]1 :: <5
Cc1cc(Nc2cc(CN3CCOCC3)c3nc(C)c(Cc4ccc(Cl)cc4F)n3n2)n[nH]1 :: <5

--- query ---
q: What value of NanoBRET pIC50 LIMK1 has been reported for the following compound? `CCc1cccc(CC)c1NC(=O)N1Cc2n[nH]c(NC(=O)c3ccc(N4CCN(C)CC4)cc3)c2C1`
a: <5
